target: HLA-A*02:01; test: IEDB peptide-MHC binding, purified MHC/direct/fluorescence; filed as Kd, often an IC50 or EC50 that approximates it; bounds were set here for any values at or beyond the usual limits of such assays; details: source organism: Vibrio vulnificus CMCP6
pKd: −log10 of the molar value.
reportedProperty: pKd

Quote pKd with test system HLA-A*02:01 for MPIAAAIGT
≤ 4.70

###

molecular target: HLA-B*18:01; test: IEDB peptide-MHC binding, purified MHC/direct/fluorescence; filed as Kd, often an IC50 or EC50 that approximates it; bounds were set here for any values at or beyond the usual limits of such assays; conditions: source organism: West Nile virus
reportedProperty: pKd
The scale used: pKd is minus the common logarithm of the concentration in molar units.

Report measured pKd; entry is KENGVDLSV
5.28
